system: PPARg:RXRa 30nM:10nM, anti-RXR (NR concentration 30 nM, RXRa partner concentration 10 nM); experiment: PBM binding z-score (relative to random genomic background probes); higher = stronger binding; sequences stand for … in GC…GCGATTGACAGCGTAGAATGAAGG
measurement_kind: PBM binding z-score

# sequence_input, endpoint_result
rows = [
    ("ATCTCTTGGTAAAGATAGTTCAGTGAATGCAAAT", 0.185),
    ("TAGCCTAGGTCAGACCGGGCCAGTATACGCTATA", -0.277),
    ("CAAATTAGGTCAAAGGTCAAAGTCGAGCCAACCA", 13.6),
    ("CGAACTAGGTCATCCAGGAAAGTGAATACATTGA", 4.25),
    ("CAAACTAGGTCAAACGTCAAAGTCGAGCCAACCA", 8.48),
    ("CTCGAAAGGTCGTACTCAGGTGAGTATACCAAAC", 1.33),
    ("CAAACTAGGTCAACAGGTCAAAGTCCGCTTCCCG", 6.55),
    ("CCGAGTAGGTTACGGGGCATTCAGGCAACGGTGA", 1.1),
    ("CCTCGGAGGACAGAAGGTCGGAGCTGTCCGCTTT", -1.51),
    ("CCGACTGGGGCATAAGGTTGCCATAAGCCAGCCC", -0.189),
    ("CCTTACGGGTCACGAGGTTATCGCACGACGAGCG", 3.29),
    ("TCATATAGGTAAACAGGTGAAAATCCGTAAGTTA", 4.38),
]

---

tested on: RARb:RXRa (NR concentration 270 nM, RXRa partner concentration 90 nM); experiment: PBM binding z-score (relative to random genomic background probes); higher = stronger binding; sequences stand for … in GC…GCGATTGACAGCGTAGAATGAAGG
measurement_kind: PBM binding z-score

# sequence_input, endpoint_result
data = [
    ("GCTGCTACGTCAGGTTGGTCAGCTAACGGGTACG", -0.154),
    ("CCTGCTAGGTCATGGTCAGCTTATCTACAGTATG", 3.81),
    ("TCATATAGGTAAACAGGTGAACGTCCGTAAGTTA", 0.977),
    ("CCTCGGTGGACAGAAGGTCAGAGCTGTCCGCTTT", 2.56),
    ("ACTAGCAGGCCAAGGGTCACTCACGATTAGTCCG", 3.45),
    ("CCTACTGGGCCATTTAGAGGTCATTGATCATATG", 2.89),
    ("ACTTGCAGGCCAAGGGTCACTCAAGATTAGTCCG", 3.6),
    ("CTACCAAGGTGAACAAGGTCGTTGATTACTATTC", 2.16),
    ("AGTCAAAGTACATCTAGGTAACGTAAGATATGCT", 0.801),
    ("TCTCGGAGGACACGTAGGTCAGAGCTTTCCAGAG", 2.54),
    ("CAAACTAGGTCAATGGTCAAAGTCGAGCCAACCA", 3.9),
    ("CCTTACGGGTCAAGATTATAGCACGGGTGGTACG", 3.98),
]

---

test system: PXR homodimer (NR concentration 270 nM); test: PBM binding z-score (relative to random genomic background probes); higher = stronger binding; sequences stand for … in GC…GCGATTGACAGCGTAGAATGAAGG
Hi, to clarify the labels: class 1 covers PBM binding z-score from 0.3 upward, class 0 covers anything below 0.3.

# sequence_input, tested_on, class
rows = [
    ("ACCATTAGTTGACTTAGGGCAACCGATACGACGC", "PXR homodimer (NR concentration 270 nM)", "class 1"),
    ("TCTATTGGTTGAAGGGCAACCGACGAGTCCGTTT", "PXR homodimer (NR concentration 270 nM)", "class 1"),
    ("GCTGCTAGATCAGGTTGGTCAGCTAACGGGTACG", "PXR homodimer (NR concentration 270 nM)", "class 0"),
    ("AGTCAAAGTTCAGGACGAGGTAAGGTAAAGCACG", "PXR homodimer (NR concentration 270 nM)", "class 1"),
    ("CCTATTAGTTGACCATAAGGGCAACCGTAGCTCG", "PXR homodimer (NR concentration 270 nM)", "class 1"),
    ("CCTTACGGGTCACTGACATGTTATAGCATTTGGA", "PXR homodimer (NR concentration 270 nM)", "class 0"),
    ("CATTACGGGTCACGAGGTTATAGCACGACGAGCG", "PXR homodimer (NR concentration 270 nM)", "class 1"),
    ("CCTGCTAGGTCAGTGGTCAGCTAAAGCAGCTCGC", "PXR homodimer (NR concentration 270 nM)", "class 0"),
    ("CCGAGTAGGTTATGGGGCTTTCAGGCAACGGTGA", "PXR homodimer (NR concentration 270 nM)", "class 0"),
    ("CGTCCAAAGTCAGCAGGTCAGTGAAAGCGACGTG", "PXR homodimer (NR concentration 270 nM)", "class 0"),
    ("AGAATGAGGTTAAGCTCAGGGAAACAGAATACAT", "PXR homodimer (NR concentration 270 nM)", "class 0"),
    ("TAGCCTAGGACATTCAGGGGCCAGTATAGAAAGC", "PXR homodimer (NR concentration 270 nM)", "class 0"),
]

---

test system: LXRa homodimer (NR concentration 270 nM); assay: PBM binding z-score (relative to random genomic background probes); higher = stronger binding; sequences stand for … in GC…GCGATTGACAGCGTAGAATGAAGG
measurement_kind: PBM binding z-score

# sequence_input, tested_on, endpoint_result
records = [
    ("ATATCTAGGTTAAGGGTCATTCAGGTTGGTTCGC", "LXRa homodimer (NR concentration 270 nM)", 3.85),
    ("ACTAGCAGCCCAAGGGTCACTCAAGATTAGTCCG", "LXRa homodimer (NR concentration 270 nM)", 0.353),
    ("TCTTGTAAATCAACAGGAGGTTAAGAAAGATCGA", "LXRa homodimer (NR concentration 270 nM)", 0.389),
    ("AGTAGCAGGCCAAGTTTGGGTCACTCAAACAAAG", "LXRa homodimer (NR concentration 270 nM)", -0.37),
    ("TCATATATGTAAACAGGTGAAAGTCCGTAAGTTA", "LXRa homodimer (NR concentration 270 nM)", 0.211),
    ("TCTTGTAGATCAAGCAGGTTAAGACAGCCTGAGT", "LXRa homodimer (NR concentration 270 nM)", -0.132),
    ("CGTCCAAGGACATAGGAGGTCAGTGAAGACAGAT", "LXRa homodimer (NR concentration 270 nM)", 1.23),
    ("TCATATAGGTAATACAGGTGGAAGTCGGCATCTA", "LXRa homodimer (NR concentration 270 nM)", 0.307),
    ("TCATATAGGGAAATGCTAGGTGAAAGTCCGATCT", "LXRa homodimer (NR concentration 270 nM)", 0.053),
    ("ATCTCTAGGTAAAGATAATTCAGTGAATGCAAAT", "LXRa homodimer (NR concentration 270 nM)", 0.217),
    ("CCTTACGGGTCACTCGAGGTTATAGCATCGGAGT", "LXRa homodimer (NR concentration 270 nM)", 3.19),
    ("TCTAGCAGGCCAGAGGGTCACTCTAGAGGTACGG", "LXRa homodimer (NR concentration 270 nM)", -0.632),
    ("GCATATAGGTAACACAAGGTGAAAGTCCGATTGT", "LXRa homodimer (NR concentration 270 nM)", -0.04),
    ("CCTAGTTGGTCAGGAGCTCACACACCGGATATGA", "LXRa homodimer (NR concentration 270 nM)", 0.119),
    ("CGTCCAAGGTCAATGCTATGTCAGTGAAAGCATT", "LXRa homodimer (NR concentration 270 nM)", 0.645),
    ("GCATAAAGGTAATACAAGGTGAAAGTCCGATTGT", "LXRa homodimer (NR concentration 270 nM)", 0.396),
    ("TCGAGAAGGTTACCAATGGGGCATTCAGCTTTCT", "LXRa homodimer (NR concentration 270 nM)", -0.534),
    ("ATCGGAAGGTCGAAGGTGAGTATACCCACCCGAA", "LXRa homodimer (NR concentration 270 nM)", -0.0479),
    ("AATACAGGGTCATCGTAGGCCAGCGTACGCACAG", "LXRa homodimer (NR concentration 270 nM)", 2.61),
    ("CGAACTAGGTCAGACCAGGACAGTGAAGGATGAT", "LXRa homodimer (NR concentration 270 nM)", -0.304),
    ("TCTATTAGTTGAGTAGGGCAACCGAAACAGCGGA", "LXRa homodimer (NR concentration 270 nM)", -0.201),
    ("ATACCAAGGTGATCGTGATGTCGTTGATACTAAC", "LXRa homodimer (NR concentration 270 nM)", 0.013),
    ("ACTATTAGTTGACTTTGGGCAACCGATACGACGC", "LXRa homodimer (NR concentration 270 nM)", 0.0306),
    ("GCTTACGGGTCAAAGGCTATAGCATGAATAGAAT", "LXRa homodimer (NR concentration 270 nM)", 0.00427),
    ("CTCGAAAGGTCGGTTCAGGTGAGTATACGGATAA", "LXRa homodimer (NR concentration 270 nM)", 0.307),
    ("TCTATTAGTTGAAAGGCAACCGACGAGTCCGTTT", "LXRa homodimer (NR concentration 270 nM)", 0.254),
]
